Target: PDE4A1 (Mus musculus, UniProt O89084)
Construct: targets used in the assays are full-length proteins (as opposed to simply the catalytic domain); expressed in transfected cells; host or cells: Schizosaccharomyces pombe, PDE gene integrated in place of cgs2
Sequence (O89084 1-610 isoform O89084-2): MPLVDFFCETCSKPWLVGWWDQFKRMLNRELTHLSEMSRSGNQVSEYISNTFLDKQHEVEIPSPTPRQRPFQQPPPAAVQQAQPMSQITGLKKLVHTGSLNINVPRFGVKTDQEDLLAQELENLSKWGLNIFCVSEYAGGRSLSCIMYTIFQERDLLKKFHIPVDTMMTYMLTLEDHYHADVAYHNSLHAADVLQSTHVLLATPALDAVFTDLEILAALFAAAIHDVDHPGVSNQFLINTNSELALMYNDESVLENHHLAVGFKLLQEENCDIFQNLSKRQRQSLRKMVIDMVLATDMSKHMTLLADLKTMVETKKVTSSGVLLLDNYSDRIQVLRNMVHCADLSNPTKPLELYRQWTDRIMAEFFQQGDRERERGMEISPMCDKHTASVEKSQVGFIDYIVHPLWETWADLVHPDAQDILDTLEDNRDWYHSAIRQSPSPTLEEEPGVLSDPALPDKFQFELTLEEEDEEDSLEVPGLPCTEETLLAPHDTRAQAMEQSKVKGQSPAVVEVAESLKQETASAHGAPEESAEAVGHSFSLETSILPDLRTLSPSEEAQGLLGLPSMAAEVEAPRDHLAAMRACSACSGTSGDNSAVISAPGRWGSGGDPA
Experiment: 5FOA growth assay (high throughput screen, ED50) in fission yeast strain expressing PDE4A1
Format: cell-based
Settings: 20 uM; PDE 4A1
Please respond with reported 1 Assay (20 uM) 4A1 for every item in the list.
Entry rule: numbers only, all in ND ND ND ND.

For reference, reported 1 Assay (20 uM) 4A1 for CCn1c2ccccc2c2nc3ccccc3nc21 stands at 70.89

molecule CCc1ccc2c(c1)c1nc3ccccc3nc1n2CC , 1 Assay (20 uM) 4A1 observed: 23.52

// 1 Assay (20 uM) 4A1 lookup, molecule = O=C(O)Cn1c2ccc(Cl)cc2c2nc3ccccc3nc21 , result: 29.15

Noted for C=CCn1c2ccccc2c2nc3ccccc3nc21 : its 1 Assay (20 uM) 4A1 reads 31.38
